# System under test: Peroxisome proliferator-activated receptor alpha (Homo sapiens)
# Sequence (Q07869 whole entry, the tested form may be a part): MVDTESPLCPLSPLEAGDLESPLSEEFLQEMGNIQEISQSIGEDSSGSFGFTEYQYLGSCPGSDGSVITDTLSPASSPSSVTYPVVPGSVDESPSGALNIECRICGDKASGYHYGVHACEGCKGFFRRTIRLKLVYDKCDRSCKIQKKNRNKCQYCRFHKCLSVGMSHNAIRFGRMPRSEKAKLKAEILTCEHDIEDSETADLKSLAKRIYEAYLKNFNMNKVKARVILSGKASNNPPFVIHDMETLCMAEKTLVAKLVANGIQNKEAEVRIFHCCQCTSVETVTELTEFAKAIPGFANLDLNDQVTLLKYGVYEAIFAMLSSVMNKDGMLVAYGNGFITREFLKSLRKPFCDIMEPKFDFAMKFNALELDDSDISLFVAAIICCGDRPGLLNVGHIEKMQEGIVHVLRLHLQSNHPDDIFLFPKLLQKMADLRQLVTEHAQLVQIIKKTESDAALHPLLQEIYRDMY
# Assay overview: Agonist activity at PPARalpha transfected in HEK293 cells by GAL4 transactivation assay
pEC50: −log10 of the molar value.
Quantity name: pEC50

[I] CCC(Cc1ccc(OC)c(CNC(=O)c2ccc(C34CC5CC(CC(C5)C3)C4)cc2F)c1)C(=O)O (racemic)
[II] CCC(Cc1cc(CNC(=O)c2ccc(C(F)(F)F)cc2)c(OC)cc1F)C(=O)O (racemic)
q: Hey, which is lower on measured pEC50, I or II ? Refer to your chosen item by its label in the answer.
a: I
(I: 7.22, II: 8.44)

[a] CCCOc1cc(F)c(CC(CC)C(=O)O)cc1CNC(=O)c1ccc(C23CC4CC(CC(C4)C2)C3)cc1F (racemic)
[b] CCOc1cc(F)c(CC(CC)C(=O)O)cc1CNC(=O)c1ccc(C23CC4CC(CC(C4)C2)C3)cc1 (racemic)
q: Hi there! Just curious which has the higher pEC50 between a and b . Pick one and reply with its label.
a: b

----------
# System under test: Peroxisome proliferator-activated receptor gamma (Homo sapiens)
# Sequence (P37231 whole entry): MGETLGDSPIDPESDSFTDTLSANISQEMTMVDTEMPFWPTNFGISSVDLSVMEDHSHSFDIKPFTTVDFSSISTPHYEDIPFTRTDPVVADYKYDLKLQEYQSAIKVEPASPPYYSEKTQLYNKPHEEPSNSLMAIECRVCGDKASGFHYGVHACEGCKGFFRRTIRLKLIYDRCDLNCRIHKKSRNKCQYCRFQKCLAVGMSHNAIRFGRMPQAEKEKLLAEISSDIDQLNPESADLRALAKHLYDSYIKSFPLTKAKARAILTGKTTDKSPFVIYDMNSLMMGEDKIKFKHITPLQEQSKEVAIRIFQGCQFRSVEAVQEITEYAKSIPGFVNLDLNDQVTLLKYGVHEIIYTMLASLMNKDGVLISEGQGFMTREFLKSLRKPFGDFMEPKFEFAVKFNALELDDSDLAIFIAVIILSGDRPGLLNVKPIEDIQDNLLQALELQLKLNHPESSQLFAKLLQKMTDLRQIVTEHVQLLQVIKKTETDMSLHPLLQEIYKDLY
# Assay overview: Agonist activity at PPARgamma transfected in HEK293 cells by GAL4 transactivation assay
Quantity name: EC50 (µM)

{"Compound": "CCCOc1cc(F)c(C[C@H](CC)C(=O)O)cc1CNC(=O)c1ccc(C23CC4CC(CC(C4)C2)C3)cc1F", "System under test": "Peroxisome proliferator-activated receptor gamma (Homo sapiens)", "EC50 [µM]": 0.038}
{"Compound": "CCC(Cc1cc(CNC(=O)c2ccc(C(F)(F)F)cc2)c(OC)cc1F)C(=O)O (racemic)", "System under test": "Peroxisome proliferator-activated receptor gamma (Homo sapiens)", "EC50 [µM]": 1.1}
{"Compound": "CCC(Cc1cc(F)c(OC)c(CNC(=O)c2ccc(C34CC5CC(CC(C5)C3)C4)cc2)c1)C(=O)O (racemic)", "System under test": "Peroxisome proliferator-activated receptor gamma (Homo sapiens)", "EC50 [µM]": 0.19}
{"Compound": "CCOc1cc(F)c(CC(CC)C(=O)O)cc1CNC(=O)c1ccc(C23CC4CC(CC(C4)C2)C3)cc1 (racemic)", "System under test": "Peroxisome proliferator-activated receptor gamma (Homo sapiens)", "EC50 [µM]": 0.024}
{"Compound": "CCC(Cc1ccc(OC)c(CNC(=O)c2ccc(C34CC5CC(CC(C5)C3)C4)cc2F)c1)C(=O)O (racemic)", "System under test": "Peroxisome proliferator-activated receptor gamma (Homo sapiens)", "EC50 [µM]": 0.14}
{"Compound": "CCCOc1cc(F)c(CC(CC)C(=O)O)cc1CNC(=O)c1ccc(C23CC4CC(CC(C4)C2)C3)cc1 (racemic)", "System under test": "Peroxisome proliferator-activated receptor gamma (Homo sapiens)", "EC50 [µM]": 0.015}
{"Compound": "CCC(Cc1cc(CNC(=O)c2ccc(C34CC5CC(CC(C5)C3)C4)cc2)c(OC)cc1F)C(=O)O (racemic)", "System under test": "Peroxisome proliferator-activated receptor gamma (Homo sapiens)", "EC50 [µM]": 0.036}

[A] CCC(Cc1ccc(OC)c(CNC(=O)c2ccc(C(F)(F)F)cc2F)c1)C(=O)O (racemic)
[B] CCCOc1cc(F)c(CC(CC)C(=O)O)cc1CNC(=O)c1ccc(C23CC4CC(CC(C4)C2)C3)cc1F (racemic)
[C] CCCOc1cc(F)c(C[C@@H](CC)C(=O)O)cc1CNC(=O)c1ccc(C23CC4CC(CC(C4)C2)C3)cc1F
[D] CCOc1cc(F)c(CC(CC)C(=O)O)cc1CNC(=O)c1ccc(C23CC4CC(CC(C4)C2)C3)cc1F (racemic)
[E] CCC(Cc1ccc(OC)c(CNC(=O)c2ccc(C34CC5CC(CC(C5)C3)C4)cc2)c1)C(=O)O (racemic)
q: Sort the compounds on EC50; start with the lowest figure. List labels; respect the requested ordering.
a: D, B, E, C, A
